The entries below are paired with their reported IC50.
# TARGET OR SYSTEM: EGFR Kinase (Homo sapiens, UniProt P00533)
# Sequence (P00533 25-1210): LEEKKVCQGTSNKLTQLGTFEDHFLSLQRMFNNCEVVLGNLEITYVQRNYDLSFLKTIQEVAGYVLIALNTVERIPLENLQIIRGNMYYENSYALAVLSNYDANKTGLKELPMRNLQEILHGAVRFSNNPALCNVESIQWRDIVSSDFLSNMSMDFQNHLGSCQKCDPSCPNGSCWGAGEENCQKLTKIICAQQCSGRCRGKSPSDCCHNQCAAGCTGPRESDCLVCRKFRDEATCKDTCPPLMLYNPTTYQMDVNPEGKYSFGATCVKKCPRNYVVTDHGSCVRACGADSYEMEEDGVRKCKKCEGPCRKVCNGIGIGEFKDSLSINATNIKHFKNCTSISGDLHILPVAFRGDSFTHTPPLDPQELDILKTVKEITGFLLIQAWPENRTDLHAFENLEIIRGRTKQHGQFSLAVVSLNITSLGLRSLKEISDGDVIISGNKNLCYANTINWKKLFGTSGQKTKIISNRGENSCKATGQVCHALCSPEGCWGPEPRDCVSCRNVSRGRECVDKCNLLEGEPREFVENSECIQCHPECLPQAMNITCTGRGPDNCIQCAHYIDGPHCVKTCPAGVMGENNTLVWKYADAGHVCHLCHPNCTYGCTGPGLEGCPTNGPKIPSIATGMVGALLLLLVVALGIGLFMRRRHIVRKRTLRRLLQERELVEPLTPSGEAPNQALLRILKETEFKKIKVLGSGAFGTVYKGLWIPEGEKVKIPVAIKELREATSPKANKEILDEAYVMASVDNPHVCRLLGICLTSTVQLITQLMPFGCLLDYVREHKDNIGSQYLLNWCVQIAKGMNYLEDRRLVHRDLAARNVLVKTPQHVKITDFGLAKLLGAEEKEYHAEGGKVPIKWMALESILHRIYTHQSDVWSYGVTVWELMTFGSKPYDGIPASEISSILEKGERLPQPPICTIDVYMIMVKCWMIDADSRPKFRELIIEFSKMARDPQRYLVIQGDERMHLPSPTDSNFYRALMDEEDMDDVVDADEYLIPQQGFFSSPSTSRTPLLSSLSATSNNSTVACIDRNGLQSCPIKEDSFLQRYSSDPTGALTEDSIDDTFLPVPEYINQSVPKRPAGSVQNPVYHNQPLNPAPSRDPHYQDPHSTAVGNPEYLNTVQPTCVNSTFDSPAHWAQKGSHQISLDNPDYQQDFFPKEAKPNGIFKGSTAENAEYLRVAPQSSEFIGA
# METHOD: EGFR inhibitory activity test (HTRF kinEASE STK S1 kinase assay)
# Assay type: biochemical
# ASSAY CONDITIONS: replicate wells, read-out: IC50(nM), Inhibitory Activity of Compounds on EGFR Kinase
ATTRIBUTE MEASURED: IC50

- COMPOUND: "CCc1nnc2n1CCN(CCCOc1cc3c(Nc4ccc(F)c(Cl)c4)ncnc3cc1OC)C2"
  TARGET OR SYSTEM: "EGFR Kinase (Homo sapiens, UniProt P00533)"
  ATTRIBUTE MEASURED: "IC50"
  RESULT: "> 10 nM"
- COMPOUND: "COc1cc2ncnc(Nc3ccc(F)c(Cl)c3)c2cc1OCCCN1C[C@@H]2C[C@]2(N(C)C)C1"
  TARGET OR SYSTEM: "EGFR Kinase (Homo sapiens, UniProt P00533)"
  ATTRIBUTE MEASURED: "IC50"
  RESULT: "0.101 to 1 nM"
- COMPOUND: "COc1cc2ncnc(Nc3ccc(F)c(Cl)c3)c2cc1OCCCN1CC2OCCN(C)C2C1 (centres unmarked)"
  TARGET OR SYSTEM: "EGFR Kinase (Homo sapiens, UniProt P00533)"
  ATTRIBUTE MEASURED: "IC50"
  RESULT: "0.101 to 1 nM"
- COMPOUND: "COc1cc2ncnc(Nc3ccc(F)cc3)c2cc1OCCCN1CC2OCCOC2C1 (centres unmarked)"
  TARGET OR SYSTEM: "EGFR Kinase (Homo sapiens, UniProt P00533)"
  ATTRIBUTE MEASURED: "IC50"
  RESULT: "1 to 10 nM"
- COMPOUND: "COc1cc2ncnc(Nc3ccc(F)c(Cl)c3)c2cc1OCCCN1CCC2CCCCC2C1 (centres unmarked)"
  TARGET OR SYSTEM: "EGFR Kinase (Homo sapiens, UniProt P00533)"
  ATTRIBUTE MEASURED: "IC50"
  RESULT: "0.001 to 0.1 nM"
- COMPOUND: "COc1cc2ncnc(Nc3ccc(F)c(Cl)c3)c2cc1OCCCN1CCCC2CNCC21 (centres unmarked)"
  TARGET OR SYSTEM: "EGFR Kinase (Homo sapiens, UniProt P00533)"
  ATTRIBUTE MEASURED: "IC50"
  RESULT: "0.001 to 0.1 nM"
- COMPOUND: "COc1cc2ncnc(Nc3ccc(F)cc3)c2cc1OCCCN1CCC2COCC2C1 (centres unmarked)"
  TARGET OR SYSTEM: "EGFR Kinase (Homo sapiens, UniProt P00533)"
  ATTRIBUTE MEASURED: "IC50"
  RESULT: "0.101 to 1 nM"
- COMPOUND: "COc1cc2ncnc(Nc3ccc(F)c(Cl)c3)c2cc1OCCCN1CCc2noc(C)c2C1"
  TARGET OR SYSTEM: "EGFR Kinase (Homo sapiens, UniProt P00533)"
  ATTRIBUTE MEASURED: "IC50"
  RESULT: "0.001 to 0.1 nM"
